// provenance: PubChem BioAssay

EXPERIMENTAL SYSTEM: Carbonic anhydrase 2 (Homo sapiens)
PROCEDURE SUMMARY: CAII small-molecule binders, profiling panel, biochemical, small-molecule microarray, Alexa647-labelled CAII (AID 1122)
CONDITION DETAILS: CAII-A647 binding fluorescence, higher = more signal
MEASUREMENT TYPE: composite z-score

C[C@H](c1ccccc1)N1C(=O)[C@H]2[C@H]3[C@H](O)[C@H](O)CC(=O)[C@@H]3CC[C@H]2C1=O ... 0.496
CCCC[C@@H]1C[C@H]1[C@@H](NS(=O)(=O)c1cccc2cccnc12)c1ccc(-c2ccccc2)cc1 ... 0.529
Cc1cc2c(c(=O)o1)[C@H](O)[C@H]1O[C@H]1C2=O ... 0.0024
CC(CCN1CCCCc2nc(C)c(C)cc21)=NOC(C)CN1CCCCc2nc(C)c(C)cc21 (centres undefined) ... 0.503
COc1ccc(O[C@H]2C=C[C@@H](c3ccccc3)O[C@@H]2COC(=O)CCC(C)=NOC(C)CN2CCCCc3nc(C)c(C)cc32)cc1 (some centres undefined) ... 0.456
CCCCCN1CC=CC23O[C@@H]4C=CCOC(=O)[C@@H]4[C@H]2C(=O)N(C(CO)C(C)C)[C@@H]3C1=O (some centres undefined) ... 0.286

input: For the compound shown here, CO[C@H]1COC(=O)CC=C[C@H](C)[C@@H](NS(=O)(=O)c2ccc(C)cc2)COC(=O)CC=C[C@@H]1C , give the reported composite z-score.
output: -0.0698

input: Try this compound too: CCOC(=O)C[C@H]1[C@H](OC(=O)c2cc3ccccc3oc2=O)[C@@H](NC(=O)c2ccc3ccccc3n2)c2cc(OCCCO)ccc2N1C(=O)c1ccccc1
output: 0.639

input: Cool, now CCOC(=O)NN=C1C[C@@H](O)[C@@H](O)[C@@H]2[C@@H]3C(=O)N(CC)C(=O)[C@@H]3CC[C@@H]12
output: 0.735

input: Same for COC(=O)[C@@]1(Cc2ccc(F)cc2)[C@H]2c3cc(C(=O)N(C)C)n(Cc4ccc(OC)c(OC)c4)c3C[C@H]2CN1C(=O)c1ccccc1
output: 0.866

input: One more compound: CC(=O)O[C@H]1C2=C(C(=O)[C@@H]3O[C@@H]31)[C@H]1C(C)O[C@@H]2[C@@]23C(=O)[C@@H]4O[C@@H]4[C@@H](O)C2=CO[C@H](C)[C@@H]13 (some centres undefined)
output: -0.0716

input: Same read-out for O=C1O[C@@H](c2ccccc2)[C@@H](c2ccccc2)N2[C@@H](c3ccccc3OCCO)[C@]3(C(=O)Nc4ccc(C#CCCO)cc43)[C@@H](C(=O)O)[C@H]12 ?
output: 0.58

input: One more compound: CCOC(=O)[C@H](CC(C)C)NC(=O)CCC1CC(OC(=O)NCc2cccc3ccccc23)CC2(CCCC(COC(=O)NCCc3ccccc3OC)O2)O1 (some centres undefined)
output: 0.211

input: Also CC(=O)C[C@H](O)[C@@H](NC(=O)OC(C)(C)C)C(C)C ?
output: -0.424

input: Now the same for CO[C@@H]1COC(=O)CCC[C@@H](C)[C@H](OC)COC(=O)CCC[C@H]1C
output: -0.277

input: Next compound up: C=CC[C@]1(C(=O)NCc2ccccc2)N=C(c2ccc(OCCCO)cc2)O[C@H]1c1ccccc1
output: 0.69

input: Same for O=C(NN=C1C[C@@H](O)[C@@H](O)[C@@H]2[C@@H]3C(=O)N(c4ccc(F)cc4F)C(=O)[C@@H]3CC[C@@H]12)OCc1ccccc1
output: 0.129

input: Now consider CCCCc1nc2c(c3c1C[C@H](C)OC3)CN(CCC(C)C)CC2 .
output: 0.221

input: And what about the compound COCCOC(=O)N1C(=O)[C@@]2(c3cc(C#CCNC(N)=O)ccc31)[C@H](c1ccccc1OCCO)N1[C@H](c3ccccc3)[C@H](c3ccccc3)OC(=O)[C@H]1[C@@H]2C(=O)N1CCN(c2ncccn2)CC1 ?
output: 0.537
